hCRHR1 Luciferase Reporter Assay IC50 by entry:
- measured_target: T1, corticotropin-releasing hormone (CRH) peptide (human and mouse (same sequence), not fully specified)
- T1 peptide: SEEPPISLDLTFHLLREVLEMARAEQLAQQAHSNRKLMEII
- procedure_details: cell-based or functional assay
# unit: nM | format: bare number

Examples with answers:
PR302341-25 (antibody, human IgG1, kappa, V domains shown) VH: QVQLVQSGAEVKKPGASVKVSCKASGYTFTDYFMKWVRQAPGQRLEWMGVINPNNGDIFYNQKFKGRVTITVDKSASTAYMELSSLRSEDTAVYYCARGTDRALFAYWGQGTLVTVSS VL: DVVMTQTPLSLSVTPGQPASISCRSGQSIVHSDGNTYLEWYLQKPGQSPQLLIYKVSNRFSGVPDRFSGSGSGTDFTLKISRVEAEDLGVYYCFQGSHIPWTFGGGTKVEIKR: 0.711
PR302341-4 (antibody, human IgG1, kappa, V domains shown) VH: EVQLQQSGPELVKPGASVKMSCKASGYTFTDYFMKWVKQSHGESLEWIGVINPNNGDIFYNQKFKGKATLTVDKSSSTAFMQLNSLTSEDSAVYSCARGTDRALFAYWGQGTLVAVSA VL: DVVMTQTPLSSPVTLGQPASISCRSGQSIVHSDGNTYLEWYQQRPGQPPRLLIYKVSNRFSGVPDRFSGSGAGTDFTLKISRVEAEDLGVYYCFQGSHIPWTFGGGTKVEIKR: 0.107
PR302341-13 (antibody, human IgG1, kappa, V domains shown) VH: QVQLVQSGAEVKKPGASVKVSCKASGYTFTDYFMKWVRQAPGQGLEWMGVINPNNGDIFYNQKFKGRVTMTRDTSTSTVYMELSSLRSEDTAVYYCARGTDRALFAYWGQGTLVTVSS VL: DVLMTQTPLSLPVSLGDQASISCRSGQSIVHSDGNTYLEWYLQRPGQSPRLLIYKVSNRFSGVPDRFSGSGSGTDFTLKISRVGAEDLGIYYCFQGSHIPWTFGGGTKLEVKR: 0.124
PR302341-19 (antibody, human IgG1, kappa, V domains shown) VH: QVQLVQSGAEVKKPGASVKVSCKASGYTFTDYFMKWVRQAPGQGLEWMGVINPNNGDIFYNQKFKGRVTMTRDTSTSTVYMELSSLRSEDTAVYYCARGTDRALFAYWGQGTLVTVSS VL: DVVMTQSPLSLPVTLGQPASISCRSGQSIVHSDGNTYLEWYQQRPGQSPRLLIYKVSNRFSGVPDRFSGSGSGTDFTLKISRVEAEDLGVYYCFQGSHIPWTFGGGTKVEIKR: 0.121
PR302341-15 (antibody, human IgG1, kappa, V domains shown) VH: QVQLVQSGAEVKKPGASVKVSCKASGYTFTDYFMKWVRQAPGQRLEWMGVINPNNGDIFYNQKFKGRVTITRDTSASTAYMELSSLRSEDTAVYYCARGTDRALFAYWGQGTLVTVSS VL: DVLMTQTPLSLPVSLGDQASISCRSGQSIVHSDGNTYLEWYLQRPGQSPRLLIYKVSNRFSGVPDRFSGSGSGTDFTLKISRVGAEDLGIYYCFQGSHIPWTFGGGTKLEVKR: 0.124

Alright, here's another binder for you.
The reported hCRHR1 Luciferase Reporter Assay IC50 of the binder PR302341-18 (antibody, human IgG1, kappa, V domains shown) VH: QVQLVQSGAEVKKPGASVKVSCKASGYTFTDYFMKWVRQAPGQGLEWMGVINPNNGDIFYNQKFKGRVTMTVDKSISTAYMELSRLRSDDTAVYYCARGTDRALFAYWGQGTLVTVSS VL: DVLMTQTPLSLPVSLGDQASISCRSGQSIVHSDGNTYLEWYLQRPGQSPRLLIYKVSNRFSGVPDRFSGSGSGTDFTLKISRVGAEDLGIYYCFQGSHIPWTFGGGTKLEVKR was 0.169
